Origin of the recorded values: patent US20240270821A1

# measurementTarget: human GLP1-R (Homo sapiens, UniProt P43220)
# Sequence (P43220 24-463): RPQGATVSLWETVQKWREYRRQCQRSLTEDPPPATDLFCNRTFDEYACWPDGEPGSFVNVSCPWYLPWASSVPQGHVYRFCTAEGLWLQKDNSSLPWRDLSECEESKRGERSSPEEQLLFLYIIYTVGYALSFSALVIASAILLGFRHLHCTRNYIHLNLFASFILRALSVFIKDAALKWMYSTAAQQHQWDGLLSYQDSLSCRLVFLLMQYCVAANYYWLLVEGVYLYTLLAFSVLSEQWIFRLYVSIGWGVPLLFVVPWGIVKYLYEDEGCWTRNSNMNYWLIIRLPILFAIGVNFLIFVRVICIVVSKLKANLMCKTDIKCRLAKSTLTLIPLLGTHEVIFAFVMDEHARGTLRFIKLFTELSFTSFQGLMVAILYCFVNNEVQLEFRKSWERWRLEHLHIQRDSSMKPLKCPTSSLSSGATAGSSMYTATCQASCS
# procedureSummary: GLP1-R internalization assay in HEK293 cells
# Assay type: cell-based
# assaySetup: HEK293 cells expressing SNAP-GLP-1R; read-out: GLP1R Internalization EC50
pEC50: −log10 of the molar value. Starred links: 1 amine or outer side, 2 acyl side, 3 side chain; linkers in the order of their positions; H or OH if unused. Non-standard residues stand in square brackets, D forms with d. Groups on a side chain read outwards from the residue. *: point of attachment. C18 diacid = O=C(O)CCCCCCCCCCCCCCCCC(=O)*; γGlu = O=C(O)[C@H](CCC(=O)[*:2])N[*:1]; 4Pal = N[C@@H](Cc1ccncc1)C(=O)O; αMeL = CC(C)C[C@](C)(N)C(=O)O; Orn = NCCC[C@H](N)C(=O)O; AEEA = NCCOCCOCC(=O)O; Aib = CC(C)(N)C(=O)O
pEC50 values by entry

# substance, pEC50
rows = [
    ("H-Y[Aib]QGTFTSDFS[Orn][αMeL]LDKK([AEEA-AEEA-γGlu-C18 diacid])AQ[Aib]AFIEYLLE[Aib]GPSSGEPPPSGS-NH2 [Example 166]", 7.13),
    ("H-Y[Aib]QGTFTSDFS[Orn][αMeL]LDKK([AEEA-AEEA-γGlu-C18 diacid])AQ[Aib]AFIEYLLE[dA]GPSSGHPPPSG[4Pal]-NH2 [Example 256]", 7.06),
    ("H-Y[Aib]QGTFTSDFS[Orn][αMeL]LDKK([AEEA-γGlu-C18 diacid])AQ[Aib]AFIEWLLEGGPSSGAPPPSGS-NH2 [Example 168]", 7.13),
    ("H-Y[Aib]QGTFTSDFS[Orn][αMeL]LDKK([AEEA-γGlu-C18 diacid])AQ[Aib]AFIEWLLEGGESSGAPPPEGS-NH2 [Example 125]", 7.06),
    ("H-Y[Aib]QGTFTSDFS[Orn][αMeL]LDKK([AEEA-γGlu-C18 diacid])AQ[Aib]AFIEYLLE[Aib]GPSSGAPPPSGE-NH2 [Example 110]", 7.55),
    ("H-Y[Aib]QGTFTSDFS[Orn][αMeL]LDKK([AEEA-γGlu-γGlu-C18 diacid])AQ[Aib]AFIEYLLE[Aib]GPSSGAPPPSGT-NH2 [Example 278]", 6.60),
]

----------
EC50 values by entry
# measurementTarget: hGIPR (Homo sapiens, UniProt P48546)
# Sequence (P48546 22-466): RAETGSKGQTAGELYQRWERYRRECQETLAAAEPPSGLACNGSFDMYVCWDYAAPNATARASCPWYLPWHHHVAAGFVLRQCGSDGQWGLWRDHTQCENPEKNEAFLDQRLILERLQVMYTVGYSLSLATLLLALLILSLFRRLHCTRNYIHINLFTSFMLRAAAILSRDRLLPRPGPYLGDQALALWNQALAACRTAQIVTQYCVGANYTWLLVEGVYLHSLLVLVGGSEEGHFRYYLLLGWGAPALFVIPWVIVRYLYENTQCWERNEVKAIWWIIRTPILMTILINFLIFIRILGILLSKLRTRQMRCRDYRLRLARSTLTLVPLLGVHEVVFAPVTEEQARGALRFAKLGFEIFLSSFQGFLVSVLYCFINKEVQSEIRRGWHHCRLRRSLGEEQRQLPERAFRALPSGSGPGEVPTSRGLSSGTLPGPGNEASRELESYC
# procedureSummary: Functional cAMP activity in the presence of 1% HSA
# Assay type: cell-based
# assaySetup: read-out: cAMP Rel EC50, hGIPR
Starred links: 1 amine or outer side, 2 acyl side, 3 side chain; linkers in the order of their positions; H or OH if unused. Non-standard residues stand in square brackets, D forms with d. Groups on a side chain read outwards from the residue. No end group written: not given here. *: point of attachment. C20 diacid = O=C(O)CCCCCCCCCCCCCCCCCCC(=O)*; C18 diacid = O=C(O)CCCCCCCCCCCCCCCCC(=O)*; αMePhe(2-F) = C[C@](N)(Cc1ccccc1F)C(=O)O; γGlu = O=C(O)[C@H](CCC(=O)[*:2])N[*:1]; αMe4Pal = C[C@](N)(Cc1ccncc1)C(=O)O; αMeY = C[C@](N)(Cc1ccc(O)cc1)C(=O)O; αMeF = C[C@](N)(Cc1ccccc1)C(=O)O; 4Pal = N[C@@H](Cc1ccncc1)C(=O)O; αMeL = CC(C)C[C@](C)(N)C(=O)O; αMeS = C[C@](N)(CO)C(=O)O; Orn = NCCC[C@H](N)C(=O)O; AEEA = NCCOCCOCC(=O)O; Aib = CC(C)(N)C(=O)O
readoutLabel: EC50 (nM)

# substance, unitAbbreviation, valueObserved
records = [
    ("H-Y[Aib]QGTFTSDFS[Orn][αMeL]LDKK([AEEA-γGlu-C18 diacid])AQ[Aib]AFIEWLLEGGESSGEPPPSGE-NH2 [Example 123]", "nM", 94.6),
    ("H-Y[Aib]QGT[αMePhe(2-F)]TSDYSILLDKIAAK([AEEA-γGlu-C20 diacid])AFIEYLIEGGPSSGEPPPSEG-NH2 [Example 296]", "nM", 21.8),
    ("Y[Aib]QGT[αMePhe(2-F)]TSDYSILLDKK([γGlu-γGlu-C18 diacid])AQ[Aib]AFIEYLEEGGPSSGAPPPSGE-NH2 [Example 435]", "nM", 10.3),
    ("H-Y[Aib]QGT[αMePhe(2-F)]TSD[4Pal][αMeS]I[αMeL]LD[Orn]K([AEEA-γGlu-γGlu-C18 diacid])AQ[αMe4Pal]EFI[dE][αMeY]LIEGGPSSGEPPPSGE-NH2 [Example 1177]", "nM", 0.544),
    ("Y[Aib]QGTFTSD[4Pal]SQ[αMeL]LDKK([γGlu-dE-dE-C18 diacid])AQ[αMe4Pal]AFIEYLIE[Aib]GPSSGAPPPSGSEE-NH2 [Example 930]", "nM", 19.9),
    ("Y[Aib]QGTFTSD[4Pal]SQ[αMeL]LDKK([dE-γGlu-dE-C18 diacid])AQ[αMe4Pal]AFIEYLIE[Aib]GPSSGAPPPSGS-NH2 [Example 923]", "nM", 18.5),
    ("H-Y[Aib]QGT[αMePhe(2-F)]TSD[4Pal][αMeS]I[αMeL]LD[Orn]K([γGlu-γGlu-C18 diacid])AQ[Aib][Orn]FI[dE][αMeY]LQEGGPSSGEPPPEGEEE-NH2 [Example 588]", "nM", 2.86),
    ("H-Y[Aib]QGTFTSDYSK[αMeL]LDKK([AEEA-γGlu-C20 diacid])AQQAFVQWLIE[dA]GPSSGEPPPSEG-NH2 [Example 342]", "nM", 71.3),
    ("H-Y[Aib]QGT[αMePhe(2-F)]TSD[4Pal]SI[αMeL]LD[Orn]K([AEEA-γGlu-C18 diacid])AQ[αMe4Pal]EFI[dE][αMeY]LAEGGPSSGAPPPSGS-NH2 [Example 642]", "nM", 0.791),
    ("H-Y[Aib]QGT[αMeF]TSD[4Pal][αMeS]I[αMeL]LD[Orn]K([AEEA-γGlu-C18 diacid])AQ[αMe4Pal]EFI[dE][αMeY]LIEGGPSSGAPPPSGE-NH2 [Example 1164]", "nM", 1.17),
    ("H-Y[Aib]QGTFTSDFS[Orn][αMeL]LDKK([AEEA-γGlu-C20 diacid])AQ[Aib]AFIEYLLE[Aib]GPSSGAPPPSEG-NH2 [Example 61]", "nM", 55.2),
]
